Data provenance is ChEMBL document CHEMBL1123266.

# Tested on: Klebsiella aerogenes
# TEST METHOD NOTES: Concentration (IC50) to inhibit the growth of Klebsiella aerogenes.
# Format: functional, organism-based
QUANTITY NAME: IC50

> print(dat)
                                   compound  reported.result
1  CC(C)CC(N)C(=O)NC1(P(=O)(O)O)CCCCC1 (configuration not stated)      > 512 µg/mL
2  CC(C)CC(NC(=O)C(C)N)P(=O)(O)O (configuration not stated)      > 512 µg/mL
3  CC(=O)OCC(NC(=O)C(N)CC(C)C)P(=O)(O)O (configuration not stated)      > 512 µg/mL

Report IC50 for every entry below.
1. CC(N)C(=O)NC(C)P(=O)(O)O (configuration not stated)
2. CC(C)CC(N)C(=O)NC(CCC(=O)O)P(=O)(O)O (configuration not stated)
3. CC(C)CC(N)C(=O)NC(C1CCCC1)P(=O)(O)O (configuration not stated)
4. COc1ccc(CC(NC(=O)C(C)N)P(=O)(O)O)cc1OC (configuration not stated)
5. CC(N)C(=O)NC(C1CCCC1)P(=O)(O)O (configuration not stated)
6. CC(N)C(=O)NC(C12CC3CC(CC(C3)C1)C2)P(=O)(O)O (configuration not stated)
7. CC(C)CC(N)C(=O)NC(C(C)(C)C)P(=O)(O)O (configuration not stated)
8. CC(C)CC(N)C(=O)NC(CC(C)C)P(=O)(O)O (configuration not stated)

1. 64 µg/mL
2. 22 µg/mL
3. > 512 µg/mL
4. > 512 µg/mL
5. > 512 µg/mL
6. > 512 µg/mL
7. > 512 µg/mL
8. > 512 µg/mL

* * *

# System: Enterococcus faecalis
# TEST METHOD NOTES: Concentration (IC50) to inhibit the growth of Streptococcus faecalis.
# Type: functional, organism-based
QUANTITY NAME: IC50

Known results for compounds:
> print(dat)
                                   compound           study.system  reported.result
1  COc1ccc(CC(NC(=O)C(C)N)P(=O)(O)O)cc1OC (stereo unspecified)  Enterococcus faecalis      > 512 µg/mL
2  CC(C)CC(N)C(=O)NC(C12CC3CC(CC(C3)C1)C2)P(=O)(O)O (stereo unspecified)  Enterococcus faecalis      > 512 µg/mL
3  CC(N)C(=O)NC(CCC(=O)O)P(=O)(O)O (stereo unspecified)  Enterococcus faecalis         32 µg/mL
4  CC(C)CC(N)C(=O)NC(C1CC1)P(=O)(O)O (stereo unspecified)  Enterococcus faecalis      > 512 µg/mL
5  CC(=O)OCC(NC(=O)C(N)CC(C)C)P(=O)(O)O (stereo unspecified)  Enterococcus faecalis      0.065 µg/mL
6  CC(N)C(=O)NC(C(C)(C)C)P(=O)(O)O (stereo unspecified)  Enterococcus faecalis      > 512 µg/mL

Report IC50 for every entry below.
1. CC(N)C(=O)N1CCCC1P(=O)(O)O (stereo unspecified)
2. CC(C)CC(N)C(=O)NC(Cc1ccccc1)P(=O)(O)O (stereo unspecified)
3. CC(N)C(=O)NC1(P(=O)(O)O)CCCCC1 (stereo unspecified)

> 512 µg/mL
> 512 µg/mL
> 512 µg/mL

* * *

# Test system: Klebsiella aerogenes
# TEST METHOD NOTES: Minimum inhibitory concentration (MIC) to control the growth of Klebsiella aerogenes strain PCM 2063
# Format: functional
Assign MIC to each entry below.

Report MIC for every entry below.
1. CC(N)C(=O)NC(CCC(=O)O)P(=O)(O)O (configuration not stated)
2. CC(N)C(=O)N1CCCC1P(=O)(O)O (configuration not stated)
3. CC(C)CC(N)C(=O)NC(Cc1ccccc1)P(=O)(O)O (configuration not stated)
4. CC(=O)OCC(NC(=O)C(N)CC(C)C)P(=O)(O)O (configuration not stated)
5. CC(N)C(=O)NC(C1CCCC1)P(=O)(O)O (configuration not stated)
6. CC(N)C(=O)NC(C)(C)P(=O)(O)O (configuration not stated)

128 µg/mL
> 512 µg/mL
> 512 µg/mL
> 512 µg/mL
> 512 µg/mL
256 µg/mL

* * *

Assign MIC to each entry below.
# Tested on: Escherichia coli
# TEST METHOD NOTES: Minimum inhibitory concentration (MIC) to control the growth of Escherichia coli strain PCM 2057
# Assay type: functional

> print(dat)
                                   molecule  reported.result
1  CC(C)CC(N)C(=O)NC(CCC(=O)O)P(=O)(O)O (stereo unspecified)        128 µg/mL
2  CC(C)CC(N)C(=O)NC(C1CC1)P(=O)(O)O (stereo unspecified)      > 512 µg/mL

Report MIC for every entry below.
1. CC(N)C(=O)NC(C)(C)P(=O)(O)O (stereo unspecified)
2. CC(N)C(=O)NC(C1CCC1)P(=O)(O)O (stereo unspecified)
3. CC(=O)OCC(NC(=O)C(N)CC(C)C)P(=O)(O)O (stereo unspecified)
4. CC(C)CC(N)C(=O)NC(C(C)(C)C)P(=O)(O)O (stereo unspecified)
5. CC(N)C(=O)NC1(P(=O)(O)O)CCCCC1 (stereo unspecified)

1. 64 µg/mL
2. > 512 µg/mL
3. > 512 µg/mL
4. > 512 µg/mL
5. > 512 µg/mL

* * *

Assign IC50 to each entry below.
# System: Klebsiella aerogenes
# TEST METHOD NOTES: Concentration (IC50) to inhibit the growth of Klebsiella aerogenes.
# Assay type: functional, organism-based

> print(dat)
                                   compound  quantity.name  reported.result
1  CC(N)C(=O)NC(C1CCCCC1)P(=O)(O)O (stereo unspecified)           IC50      > 512 µg/mL
2  CC(C)CC(N)C(=O)N1CCCC1P(=O)(O)O (stereo unspecified)           IC50        154 µg/mL
3  CC(N)C(=O)NC(C1CC1)P(=O)(O)O (stereo unspecified)           IC50      > 512 µg/mL
4  CC(N)C(=O)NC1(P(=O)(O)O)CCCCC1 (stereo unspecified)           IC50      > 512 µg/mL
5  CC(N)C(=O)NC(C1CCC1)P(=O)(O)O (stereo unspecified)           IC50      > 512 µg/mL
6  CC(C)CC(N)C(=O)NC(C1CCC1)P(=O)(O)O (stereo unspecified)           IC50      > 512 µg/mL

Report IC50 for every entry below.
1. CC(C)CC(N)C(=O)NC(C(C)C)P(=O)(O)O (stereo unspecified)
2. CC(C)CC(N)C(=O)NC(C)P(=O)(O)O (stereo unspecified)
3. CC(C)CC(N)C(=O)NC(C1CCCCC1)P(=O)(O)O (stereo unspecified)
4. CC(C)CC(N)C(=O)NC(C12CC3CC(CC(C3)C1)C2)P(=O)(O)O (stereo unspecified)
5. CC(N)C(=O)NC(C(C)C)P(=O)(O)O (stereo unspecified)
6. CC(N)C(=O)NC(C(C)(C)C)P(=O)(O)O (stereo unspecified)
7. CC(=O)OCC(NC(=O)C(C)N)P(=O)(O)O (stereo unspecified)

1: 0.065 µg/mL; 2: 1.6 µg/mL; 3: > 512 µg/mL; 4: > 512 µg/mL; 5: > 512 µg/mL; 6: > 512 µg/mL; 7: 96 µg/mL

* * *

Assign IC50 to each entry below.
# Test system: Enterococcus faecalis
# TEST METHOD NOTES: Concentration (IC50) to inhibit the growth of Streptococcus faecalis.
# Format: functional, organism-based

> print(dat)
                                   molecule  quantity.name  reported.result
1  CC(N)C(=O)NC(C)P(=O)(O)O (configuration not stated)           IC50         30 µg/mL
2  CC(N)C(=O)NC(Cc1ccccc1)P(=O)(O)O (configuration not stated)           IC50      > 512 µg/mL
3  CC(C)CC(N)C(=O)NC(C1CCC1)P(=O)(O)O (configuration not stated)           IC50        230 µg/mL
4  CC(N)C(=O)NC(C1CCC1)P(=O)(O)O (configuration not stated)           IC50      > 512 µg/mL

Report IC50 for every entry below.
1. CC(C)CC(N)C(=O)NC(CCC(=O)O)P(=O)(O)O (configuration not stated)
2. CC(C)CC(N)C(=O)NC(C)(C)P(=O)(O)O (configuration not stated)

1. 32 µg/mL
2. 4.4 µg/mL

Report IC50 for every entry below.
1. CC(C)CC(N)C(=O)NC(C1CCCC1)P(=O)(O)O (configuration not stated)
2. CC(N)C(=O)NC(C12CC3CC(CC(C3)C1)C2)P(=O)(O)O (configuration not stated)
3. CC(C)CC(N)C(=O)NC(CC(C)C)P(=O)(O)O (configuration not stated)
4. CC(C)CC(N)C(=O)NC(C1CCCCC1)P(=O)(O)O (configuration not stated)
5. CC(N)C(=O)NC(C1CCCCC1)P(=O)(O)O (configuration not stated)
6. CC(N)C(=O)NC(C(C)C)P(=O)(O)O (configuration not stated)
7. CC(N)C(=O)NC(C1CCCC1)P(=O)(O)O (configuration not stated)
8. CC(C)CC(N)C(=O)NC(C(C)(C)C)P(=O)(O)O (configuration not stated)

["> 512 µg/mL", "> 512 µg/mL", "> 512 µg/mL", "> 512 µg/mL", "> 512 µg/mL", "0.09 µg/mL", "16 µg/mL", "> 512 µg/mL"]
